// data source = paper PMC12136788

# assay-target: T1, UNK ZnF1-6 (called full-length) (human, UniProt Q9C0B0 30-357)
# T1 sequence: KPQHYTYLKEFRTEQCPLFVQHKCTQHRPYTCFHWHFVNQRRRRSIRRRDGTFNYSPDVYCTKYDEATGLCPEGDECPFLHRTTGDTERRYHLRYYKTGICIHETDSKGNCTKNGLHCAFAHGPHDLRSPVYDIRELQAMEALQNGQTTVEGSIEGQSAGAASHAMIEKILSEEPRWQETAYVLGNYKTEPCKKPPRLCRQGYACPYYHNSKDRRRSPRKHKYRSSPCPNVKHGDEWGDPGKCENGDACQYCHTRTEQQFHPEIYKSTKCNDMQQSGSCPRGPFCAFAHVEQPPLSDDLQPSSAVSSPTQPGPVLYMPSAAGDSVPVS
# test-description: nsRBNS (natural sequence RNA bind-n-seq); RBNS binding buffer (assumed for nsRBNS): 25 mM Tris pH 7.5, 150 mM KCl, 3 mM MgCl2, 0.01% Triton X-100, 500 ug/ml BSA, 20 U/ml SUPERase-In, 4 C; UNK is unkempt and MSI1 is Musashi-1; names of the RNAs are library labels; protein concentration not given here; high values mean tight binding
The full ranking holds about 5,800 sequences; the median of “enrichment r” is about 0.68, and the highest 2% start at about 11. The entries come from a sample that favours the highest values as a whole.
The class of a record is decided solely by its measured binding signal; consult c1 (below 1 enrichment R), c2 (1 enrichment R to below 10 enrichment R), c3 (10 enrichment R or more)

Solved cases (3 shown):
binder	class
chr19:39539560:39539696:-|CDS|ENSG00000176396|unk|FALSE|unique (ssRNA) RNA: GGGAGUUCUACAGUCCGACGAUCCGGGAACGGAGGCCUGGCUGCGUUGCCCUAUCUCCGUCUCCGCCACCCACUUAGCGUUUUAGGCAUCAAUUACCAGCAGUUUCUCCGCCACUAUCUGGAAAAUUACCCGAUUGCUCCCGGCAACAGAGGAUUGAGCAUCA	c2
chr5:180576808:180576909:+|3pUTR|ENSG00000113300|unk|total|mutant (ssRNA) RNA: GGGAGUUCUACAGUCCGACGAUCUAUUUUCCGUGUCCUAAAUAAUUUUCAAUAAUCUAUAAUCCCUAAAAUGCAAUAAAAACCCGUAUGUUUUCACGGUGUAUAUUUUUUUUCAAAAAUUCUGUAACAAAUAUAUUUAAUGUGCAACAGAGGAUUGAGCAUCA	c3
chr2:65312585:65312700:-|3pUTR|ENSG00000198369|unk|FALSE|unique (ssRNA) RNA: GGGAGUUCUACAGUCCGACGAUCUGGACCAGGGCUAGAAUGGGGAUUUCAGGUUUCUAUGAGCCUCCCCAUUACCCCUAAAGUAGAACAUUUUUUAAAUUGUGUUGCCACCACUUCUAAAAAUUUAGCAAUAUUAGAAUAGGACAACAGAGGAUUGAGCAUCA	c3

In the following, a different binder is considered.
Exercise: Band for the recorded binding signal of chr15:93024873:93024975:+|3pUTR|ENSG00000173575|unk|total|mutant (ssRNA) RNA: GGGAGUUCUACAGUCCGACGAUCGGUCCAGCUCUGAUUCGGGUCACCACUCCUGCACUUUGGCACCCCAUCCCAUUCCAGCCCCGUUCUGGCCUCCCACUUUGACGGGCACUUGGAGGAGGAGCUGACUGUGUGUGUACCAGCCAACAGAGGAUUGAGCAUCA ?
Solution: c2
